- subject_of_test: T1, EsCas13d, nuclease-dead (Eubacterium siraeum, UniProt B0MS50, R295A;H300A;R849A;H854A)
- T1 sequence: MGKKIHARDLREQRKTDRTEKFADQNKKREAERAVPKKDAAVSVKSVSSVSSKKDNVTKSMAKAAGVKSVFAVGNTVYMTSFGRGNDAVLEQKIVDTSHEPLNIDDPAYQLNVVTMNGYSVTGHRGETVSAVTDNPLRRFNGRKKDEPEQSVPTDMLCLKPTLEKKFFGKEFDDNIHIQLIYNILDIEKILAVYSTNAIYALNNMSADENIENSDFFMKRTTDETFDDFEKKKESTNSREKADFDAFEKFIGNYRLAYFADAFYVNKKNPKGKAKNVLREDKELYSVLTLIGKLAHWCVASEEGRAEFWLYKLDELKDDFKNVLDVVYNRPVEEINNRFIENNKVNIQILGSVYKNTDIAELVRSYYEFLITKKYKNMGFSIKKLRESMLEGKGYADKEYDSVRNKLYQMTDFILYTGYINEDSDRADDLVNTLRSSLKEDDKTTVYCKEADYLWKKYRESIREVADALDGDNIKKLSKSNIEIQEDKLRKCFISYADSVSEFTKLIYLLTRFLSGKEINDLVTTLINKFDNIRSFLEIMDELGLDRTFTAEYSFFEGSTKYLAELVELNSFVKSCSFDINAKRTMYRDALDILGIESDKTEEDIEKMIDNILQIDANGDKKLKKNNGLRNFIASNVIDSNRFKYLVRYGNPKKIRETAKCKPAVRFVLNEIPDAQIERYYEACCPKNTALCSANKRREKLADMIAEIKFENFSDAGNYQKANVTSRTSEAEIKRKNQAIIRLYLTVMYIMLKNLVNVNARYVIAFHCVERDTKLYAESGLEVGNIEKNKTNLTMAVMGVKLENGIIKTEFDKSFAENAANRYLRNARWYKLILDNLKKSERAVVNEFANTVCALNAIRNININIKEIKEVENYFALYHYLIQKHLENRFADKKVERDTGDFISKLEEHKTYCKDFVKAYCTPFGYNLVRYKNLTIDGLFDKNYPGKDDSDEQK
- method_description: crRNA (strand 1, pre-loaded); Mg2+; 40 mM Tris-HCl pH 7.5, 150 mM NaCl, 6 mM MgCl2, 1 mM DTT, 0.1% Tween-20, 0.2 mg/ml BSA; 25 C; 10 min per concentration, then washed
- condition_description: tags: His6-TwinStrep-SUMO cleaved; N-terminal SNAP kept (SNAP-Surface 488); label: 3' end held by stalled T7 RNA polymerase
pKd: −log10 of the molar value.

binder	pKd
target 1 insU 3' of 7,insC 3' of 3 (mixed) RNA 1: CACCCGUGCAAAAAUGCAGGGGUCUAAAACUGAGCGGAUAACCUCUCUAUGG RNA 2: GGGAAUGGAUCCACAUCUACGAAUUCGUACCAUAGAGAGGUUAUCUCGCUCCACCGAGAUCGGAAGAGCACACGU	7.81
target 1 insA 3' of 8,insA 3' of 2 (mixed) RNA 1: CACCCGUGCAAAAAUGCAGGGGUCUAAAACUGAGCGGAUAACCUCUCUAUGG RNA 2: GGGAAUGGAUCCACAUCUACGAAUUCGUACCAUAGAGAGGUUAUACCGCUCAACCGAGAUCGGAAGAGCACACGU	7.75
